Values were extracted from patent US20240166610A1.

assay.info: In vivo pharmacokinetic evaluation in SD rats
settings: male, rat, plasma, PO, dose IV/PO 1/2 mg/kg, read-out: Area under drug-time curve AUC0-last PO
Where a name gives a salt, the structure may show the parent alone.
Reported AUC(0-t) by item:
Please reply with the bare figure in µM·h and do not write the unit itself.

Solved entries (count: 5):
## Input AUC(0-t) lookup needed for Cc1cc(N[C@@H]2CCCC[C@H]2O)nnc1-c1ccc2sccc2c1O [Hydrochloride of compound 60] , thanks.
## Output 6.66

## Input Returns the measured AUC(0-t) for the input compound. Input: Cc1cc(N[C@@H]2CCCN(C3COC3)C2)nnc1-c1ccc2sccc2c1O
## Output 7.4

## Input What AUC(0-t) value was documented for this compound, Cc1cc(N[C@@H]2CCCN(C3CCOC3)C2)nnc1-c1ccc2sccc2c1O (stereo partly drawn) [Formate of compound 42] ?
## Output 9.15

## Input What value of AUC(0-t) has been recorded for this entry: Cc1cc(N[C@@H]2CCCN(C)C2)nnc1-c1ccc2sccc2c1O [Hydrochloride of compound 20]
## Output 0.926

## Input For Cc1cc(N[C@@H]2CCCN(CC#N)C2)nnc1-c1ccc2sccc2c1O , what is its reported AUC(0-t)?
## Output 4.69

Please find the next compound below.
## Input Param item = Cc1cc(N[C@@H]2CCCN(C(C)C)C2)nnc1-c1ccc2sccc2c1O ; retrieve measured AUC(0-t).
## Output 4.53

###

target.or.test.system: NLRP3 (Homo sapiens, UniProt Q96P20)
Construct: This experiment utilized the human-derived monocyte cell line THP1; endogenous in cells
Sequence (Q96P20 whole entry): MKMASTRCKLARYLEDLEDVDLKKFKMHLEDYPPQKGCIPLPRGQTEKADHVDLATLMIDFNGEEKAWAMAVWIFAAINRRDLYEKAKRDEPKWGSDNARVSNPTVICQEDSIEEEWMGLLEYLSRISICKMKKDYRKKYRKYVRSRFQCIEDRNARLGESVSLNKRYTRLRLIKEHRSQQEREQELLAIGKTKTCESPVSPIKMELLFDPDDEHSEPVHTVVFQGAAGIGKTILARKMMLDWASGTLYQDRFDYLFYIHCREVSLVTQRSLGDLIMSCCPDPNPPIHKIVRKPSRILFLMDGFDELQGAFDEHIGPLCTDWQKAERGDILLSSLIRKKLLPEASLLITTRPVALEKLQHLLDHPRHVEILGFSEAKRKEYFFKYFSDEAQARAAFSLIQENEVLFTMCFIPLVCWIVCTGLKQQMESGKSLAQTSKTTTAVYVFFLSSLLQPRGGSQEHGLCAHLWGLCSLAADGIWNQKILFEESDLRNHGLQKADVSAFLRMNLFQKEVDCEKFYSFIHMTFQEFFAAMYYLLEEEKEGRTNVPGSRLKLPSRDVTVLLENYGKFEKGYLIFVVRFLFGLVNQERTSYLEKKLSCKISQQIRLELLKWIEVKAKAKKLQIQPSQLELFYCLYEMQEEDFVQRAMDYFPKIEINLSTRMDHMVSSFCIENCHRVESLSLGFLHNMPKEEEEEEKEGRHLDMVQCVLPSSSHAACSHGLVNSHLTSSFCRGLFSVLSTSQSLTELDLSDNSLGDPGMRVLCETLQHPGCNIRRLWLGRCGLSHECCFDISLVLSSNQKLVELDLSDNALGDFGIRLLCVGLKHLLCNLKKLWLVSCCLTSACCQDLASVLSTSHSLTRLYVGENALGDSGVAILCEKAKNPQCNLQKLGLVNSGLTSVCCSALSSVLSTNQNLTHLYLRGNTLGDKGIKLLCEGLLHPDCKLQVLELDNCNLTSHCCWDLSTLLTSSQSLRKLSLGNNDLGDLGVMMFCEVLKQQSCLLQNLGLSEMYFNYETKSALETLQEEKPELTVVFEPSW
assay.info: Detecting IC50 of NLRP3 inhibitor by using THP-1 cells (IL-1β secretion, CBA)
settings: PMA/LPS/ATP, IL-1β in supernatant
Procedure: 1. Experimental principle: This experiment utilized the human-derived monocyte cell line THP1 to investigate the inhibitory activity (IC50) of NLRP3 inhibitor on cellular IL-1β secretion. […] (6) On the third day, 5 μL of the supernatant was taken, diluted 10-fold, and the content of IL-1β in the supernatant was detected by cytometric bead array (CBA).
pIC50: −log10 of the molar value. Structures can show the parent of a compound that is named as a salt.
# pIC50 >= 8 gives Criterion met, anything below gives Criterion not met

Worked set:
## Input Given the entry Cc1c(N[C@@H]2CCCN(C)C2)nnc(-c2ccc3sccc3c2O)c1C [Hydrochloride of compound 72] , answer whether its pIC50 meets or surpasses 8.
## Output Criterion met

## Input For this compound, is measured pIC50 8 or higher? Cc1cc(N[C@@H]2CCCN(C3COC3)C2)nnc1-c1ccc(-c2ccc(F)cc2)cc1O
## Output Criterion not met

Continuing:
## Input State whether the measured pIC50 reaches 8, counting equality as reaching it, for CN1CCC[C@@H](Nc2ccc(-c3ccc4sccc4c3O)nn2)C1 [Hydrochloride of compound 74]
## Output Criterion not met

## Input Could you verify whether the entry Cc1cc(N[C@@H]2CCCN(C3CCOC3)C2)nnc1-c1ccc2sccc2c1O (some centres unmarked) [Formate of compound 42] shows pIC50 of no less than 8?
## Output Criterion met

## Input State whether the measured pIC50 reaches 8, counting equality as reaching it, for Cc1cc(NC2CN(C)CC(F)(F)C2)nnc1-c1ccc2sccc2c1O (single isomer, unassigned) [Compound 70a]
## Output Criterion not met

## Input In plain terms: is recorded pIC50 at least 8 for Cc1cc(N[C@@H]2CCCN(C3CCOC3)C2)nnc1-c1ccc(C2CC2)cc1O (some centres unmarked) ?
## Output Criterion met

## Input Identify whether the reported pIC50 of the following compound is 8 or greater: Cc1cc(N[C@@H]2CCCN(CC#N)C2)nnc1-c1ccc2c(c1O)CCC2 [Compound 12a]
## Output Criterion met
